Tested on: Staphylococcus epidermidis Step_14990
Experiment: MIC, broth microdilution (NCCLS)
Assay type: cell-based
Conditions: strain ID C; broth microdilution; in µg/mL (unit assumed)
In this section we review reported MIC, strain ID C values for a set of molecules.

Please review the following examples before continuing.
• C#C[C@]12OC(=O)N(CCCCn3cnc(-c4ccc(OC)nc4)c3)[C@@H]1[C@@H](C)C(=O)[C@H](C)C[C@](C)(OC)[C@H](OC1O[C@H](C)C[C@H](N(C)C)[C@H]1O)[C@@H](C)C(=O)[C@@H](C)C(=O)O[C@@H]2CC (stereo partly shown) [XXXII] = 0.1
• CC[C@H]1OC(=O)[C@H](C)C(=O)[C@H](C)[C@@H](O[C@@H]2O[C@H](C)C[C@H](N(C)C)[C@H]2O)[C@](C)(OC)C[C@@H](C)C(=O)[C@H](C)[C@H]2N(CCCCn3cnc(-c4cccnc4)c3)C(=O)O[C@]12C [Telithromycin, telithromycin, reference compound] = 0.1-0.2
• C=C[C@]12OC(=O)N(CCCCn3cnc(-c4cccnc4Cl)c3)[C@@H]1[C@@H](C)C(=O)[C@H](C)C[C@](C)(OC)[C@H](OC1O[C@H](C)C[C@H](N(C)C)[C@H]1O)[C@@H](C)C(=O)[C@@H](C)C(=O)O[C@@H]2CC (stereo partly shown) [XXXVI] = 0.1
• C=C[C@]12OC(=O)N(CCCCn3cnc(-c4cnccc4OC)c3)[C@@H]1[C@@H](C)C(=O)[C@H](C)C[C@](C)(OC)[C@H](OC1O[C@H](C)C[C@H](N(C)C)[C@H]1O)[C@@H](C)C(=O)[C@@H](C)C(=O)O[C@@H]2CC (stereo partly shown) [XXXV] = 0.1
• C=C[C@]12OC(=O)N(CCCCn3cc(-c4ccc(Cl)nc4)nc3C)[C@@H]1[C@@H](C)C(=O)[C@H](C)C[C@](C)(OC)[C@H](OC1O[C@H](C)C[C@H](N(C)C)[C@H]1O)[C@@H](C)C(=O)[C@@H](C)C(=O)O[C@@H]2CC (stereo partly shown) [XXIX] = 0.1

Short answer for C=C[C@]12OC(=O)N(CCCCn3cnc(-c4ccc(Cl)nc4)c3C)[C@@H]1[C@@H](C)C(=O)[C@H](C)C[C@](C)(OC)[C@H](OC1O[C@H](C)C[C@H](N(C)C)[C@H]1O)[C@@H](C)C(=O)[C@@H](C)C(=O)O[C@@H]2CC (stereo partly shown) [XXXVII] : MIC, strain ID C was 0.2

Short answer for C=C[C@]12OC(=O)N(CCCCn3cnc(-c4cnc(Cl)c(C)c4)c3)[C@@H]1[C@@H](C)C(=O)[C@H](C)C[C@](C)(OC)[C@H](OC1O[C@H](C)C[C@H](N(C)C)[C@H]1O)[C@@H](C)C(=O)[C@@H](C)C(=O)O[C@@H]2CC (stereo partly shown) [XXXVIII] : MIC, strain ID C was 0.1

----------
Tested on: Streptococcus pneumoniae Stpn_Erm S 4297
Assay: MIC, broth microdilution (NCCLS)
Assay type: cell-based
Details: strain ID Q; broth microdilution; in µg/mL (unit assumed)
In this section we review reported MIC, strain ID Q values for a set of compounds.
Give a plain numeric answer without units written out.

Short answer for C=C[C@]12OC(=O)N(CCCCn3cnc(-c4ccc(Cl)nc4)c3C)[C@@H]1[C@@H](C)C(=O)[C@H](C)C[C@](C)(OC)[C@H](OC1O[C@H](C)C[C@H](N(C)C)[C@H]1O)[C@@H](C)C(=O)[C@@H](C)C(=O)O[C@@H]2CC (some centres unmarked) : MIC, strain ID Q was 0.2

Short answer for C=C[C@]12OC(=O)N(CCCCn3cnc(-c4cccnc4Cl)c3)[C@@H]1[C@@H](C)C(=O)[C@H](C)C[C@](C)(OC)[C@H](OC1O[C@H](C)C[C@H](N(C)C)[C@H]1O)[C@@H](C)C(=O)[C@@H](C)C(=O)O[C@@H]2CC (some centres unmarked) : MIC, strain ID Q was 0.1
